Reference for the values: patent US20230104936A1

Test system: TFEB
Assay: TFEB nuclear translocation assay, HeLa wt cells
Assay type: cell-based
Conditions: Homo sapiens, HeLa, 2 h, 2 hrs compound treatment, Table 1 does not say HeLa wt or TRPML1 KO
measurement-name: AC50

Example molecules with recorded AC50:
molecule	measurement-name	meas-value
CN(C)S(=O)(=O)c1ccc(S(=O)(=O)Nc2ccccc2N2CCC(C)(c3ccc(F)cc3Cl)CC2)cc1	AC50	≤ 2 µM
CC(C)Oc1ccc(S(=O)(=O)Nc2cccc(Cl)c2N2CCOCC2)cc1	AC50	2.01 to 8 µM
COCC1(C)CCN(c2ccccc2NS(=O)(=O)Cc2cccc(S(=O)(=O)COC)c2)CC1	AC50	≥ 10 µM

For the next question, use this molecule.
Input line: Provide AC50 value for the following molecule: CC1(C)CC2(CCN(c3ccccc3NS(=O)(=O)c3ccc4c(c3)CCC(C(F)F)O4)CC2)CO1 (stereo not shown)
Output line: 2.01 to 8 µM
